// provenance: ChEMBL document CHEMBL4321860

As shown below, each of these molecules has a reported CC50 at 48 h value.
# Procedure text: Cytotoxicity against dog MDCK cells after 48 hrs by CellTiter 96 AQueous non-radioactive cell proliferation assay
# Format: cell-based, Canis lupus familiaris

Structure string | Unit of measurement | Measurement qualifier | CC50 at 48 h
CC(C)OCCCNC(=O)c1csc(Nc2ccc(Cl)c(F)c2)n1 | µM | > | 100
CC(C)OCCCNC(=O)c1csc(Nc2cc(F)c(Cl)c(F)c2)n1 | µM | > | 100
CCOCCCNC(=O)c1csc(Nc2ccc(Cl)c(C)c2)n1 | µM | = | 52
CCOCCCNC(=O)c1csc(Nc2ccc(Cl)c(F)c2)n1 | µM | > | 100
Cc1cc(Nc2nc(C(=O)NCCCOC(C)C)cs2)ccc1Cl | µM | > | 100
Cc1cc(Nc2nc(C(=O)NCCCN3CCOCC3)cs2)cc(C)c1Cl | µM | = | 45.7
O=C(NCCCN1CCOCC1)c1csc(Nc2cc(F)c(Cl)c(F)c2)n1 | µM | = | 52
Cc1cc(Nc2nc(C(=O)NCCCN3CCOCC3)cs2)ccc1Cl | µM | = | 47
O=C(NCCCN1CCOCC1)c1csc(Nc2ccc(Cl)c(F)c2)n1 | µM | = | 45
CCOCCCNC(=O)c1csc(Nc2ccc(Cl)c(Cl)c2)n1 | µM | > | 100
CCOCCCNC(=O)c1csc(Nc2ccc(Cl)cc2)n1 | µM | > | 100
